# target-or-system: T1, cynomolgus monkey CD137 (cynomolgus monkey, UniProt Q07011 24-186 (human entry), limits assumed)
# T1 construct: Soluble analyte in the Biacore assay; also called cyno CD137
# T1 chain: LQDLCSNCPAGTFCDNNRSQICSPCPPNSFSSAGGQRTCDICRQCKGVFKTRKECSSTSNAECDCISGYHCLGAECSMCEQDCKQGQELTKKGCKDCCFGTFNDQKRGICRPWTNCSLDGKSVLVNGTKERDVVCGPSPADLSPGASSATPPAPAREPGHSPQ
# measurement-protocol: SPR Biacore T200, IgG captured on protein A, antigen as analyte, 25 C;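 note: antigens flowed over a CM3 chip for 120 s association, KD derived from ka and kd, running buffer (ACES, NaCl, Tween20, pH 7.4) served as blank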
experimental-readout: koff (s⁻¹)

1. dBBDu_189 / dBBDu_L116 (antibody, human IgG1, V domains shown, Tested as IgG (human IgG1 constant region, kappa light chain); also called dBBDu189/L116) VH: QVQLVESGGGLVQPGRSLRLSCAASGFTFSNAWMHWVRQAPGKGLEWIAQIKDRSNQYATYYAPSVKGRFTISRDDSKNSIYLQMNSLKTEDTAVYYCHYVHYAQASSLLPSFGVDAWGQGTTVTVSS VL: DIVMTQSPLSLPVTPGEPASISCSSSQELVHANRQIYLHWYQQKPGQAPRLLIYKVANRFPGVPDRFSGSGSGTDFTLKISRVEAEDVGVYYCAQGTQVPFTFGQGTKLEIK ... 0.00823
2. dBBDu_193 / dBBDu.L127 (antibody, human IgG1, V domains shown, Tested as IgG (human IgG1 constant region, kappa light chain); also called dBBDu193/L127; dBBDu_193/L127) VH: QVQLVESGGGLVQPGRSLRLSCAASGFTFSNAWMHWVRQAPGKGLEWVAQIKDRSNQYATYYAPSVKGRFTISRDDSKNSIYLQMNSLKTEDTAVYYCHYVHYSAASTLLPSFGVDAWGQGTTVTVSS VL: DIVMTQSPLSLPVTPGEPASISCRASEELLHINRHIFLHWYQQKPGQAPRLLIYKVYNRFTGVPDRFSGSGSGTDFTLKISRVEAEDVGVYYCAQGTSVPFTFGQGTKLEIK ... 0.00316
3. dBBDu_167 / dBBDu_L091 (antibody, human IgG1, V domains shown, Tested as IgG (human IgG1 constant region, kappa light chain); also called dBBDu167/L091) VH: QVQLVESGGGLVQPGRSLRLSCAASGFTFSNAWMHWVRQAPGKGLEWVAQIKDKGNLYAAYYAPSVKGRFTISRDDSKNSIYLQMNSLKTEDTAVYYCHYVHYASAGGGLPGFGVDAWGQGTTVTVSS VL: DIVMTQSPLSLPVTPGEPASISCSASESLLHNNRHTYLHWYQQKPGQAPRLLIYRVSNRFNGVPDRFSGSGSGTDFTLKISRVEAEDVGVYYCGQGTQVPFTFGQGTKLEIK ... 0.0101
